molecules and their reported pKi
System Under Test: ROCK I (AA 6-553) (Homo sapiens, UniProt Q13464)
Sequence (Q13464 6-553, species assumed): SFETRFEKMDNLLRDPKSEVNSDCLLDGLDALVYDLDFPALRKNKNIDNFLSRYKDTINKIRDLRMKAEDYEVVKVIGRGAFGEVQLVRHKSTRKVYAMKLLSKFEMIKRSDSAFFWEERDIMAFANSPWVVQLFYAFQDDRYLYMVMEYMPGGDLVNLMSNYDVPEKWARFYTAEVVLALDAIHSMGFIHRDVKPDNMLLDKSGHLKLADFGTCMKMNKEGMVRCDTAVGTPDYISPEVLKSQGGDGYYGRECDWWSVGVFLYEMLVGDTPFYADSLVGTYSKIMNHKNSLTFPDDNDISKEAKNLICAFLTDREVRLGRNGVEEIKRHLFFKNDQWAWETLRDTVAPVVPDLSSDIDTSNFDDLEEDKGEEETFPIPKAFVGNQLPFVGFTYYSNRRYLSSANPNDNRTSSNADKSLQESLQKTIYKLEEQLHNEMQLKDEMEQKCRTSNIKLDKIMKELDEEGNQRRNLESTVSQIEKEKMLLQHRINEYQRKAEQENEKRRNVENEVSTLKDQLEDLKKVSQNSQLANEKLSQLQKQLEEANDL
pKi: −log10 of the molar value.

{"Molecule": "CS(=O)(=O)c1ccc(CC(=O)Nc2nc(-c3c[nH]c4ncccc34)cs2)cc1 [II-74]", "pKi": "> 6.30"}
{"Molecule": "O=C(Cc1cccc(OCCCN2CCNCC2)c1)Nc1nc(-c2c[nH]c3nccc(F)c23)cs1 [II-36]", "pKi": "> 6.30"}
{"Molecule": "CN1CCCN(S(=O)(=O)c2cccc(CC(=O)Nc3nc(-c4c[nH]c5ncccc45)cs3)c2)CC1 [II-52]", "pKi": "> 6.30"}
{"Molecule": "O=C(Cc1ccc(OCCN2CCNCC2)cc1Cl)Nc1nc(-c2c[nH]c3ncccc23)cs1 [II-108]", "pKi": "> 6.30"}
{"Molecule": "CS(=O)(=O)Nc1cccc(CC(=O)Nc2nc(-c3c[nH]c4ncc(Br)cc34)cs2)c1 [II-78]", "pKi": "> 6.30"}
{"Molecule": "CN1CCN(CCOc2cccc(CC(=O)N(c3nc(-c4c[nH]c5ncccc45)cs3)C3CC3)c2)CC1 [II-86]", "pKi": "> 6.30"}
{"Molecule": "CS(=O)(=O)Nc1ccc(CC(=O)Nc2nc(-c3c[nH]c4ncccc34)cs2)c(Cl)c1 [II-47]", "pKi": "> 6.30"}
{"Molecule": "O=C(Cc1ccccc1)N(c1nc(-c2c[nH]c3ncccc23)cs1)C1CC1 [I-20]", "pKi": "> 6.30"}
{"Molecule": "CS(=O)(=O)Nc1cccc(CNC(=O)c2csc(-c3c[nH]c4ncccc34)c2)c1 [II-117]", "pKi": "> 6.30"}
{"Molecule": "O=C(Cc1ccccc1)Nc1nc(-c2c[nH]c3nccc(Cl)c23)cs1 [II-91]", "pKi": "> 6.30"}
{"Molecule": "O=C(Cc1cccc(S(=O)(=O)N2CCOCC2)c1)Nc1csc(-c2c[nH]c3ncccc23)n1 [II-57]", "pKi": "> 6.30"}

----------
Ki values for the compounds below.
System Under Test: PKA (Homo sapiens, UniProt P17612)

{"Compound": "CS(=O)(=O)CC(=O)Nc1nc(-c2c[nH]c3ncccc23)cs1 [II-161]", "Ki": "< 500 nM"}
{"Compound": "O=C(Nc1nc(-c2c[nH]c3ncccc23)cs1)N1CCCC1 [II-241]", "Ki": "500 to 5000 nM"}
{"Compound": "O=C1CCC(C(=O)Nc2nc(-c3c[nH]c4ncccc34)cs2)N1 (stereo not shown) [II-153]", "Ki": "500 to 5000 nM"}
{"Compound": "O=C(CCOc1ccccc1)Nc1nc(-c2c[nH]c3ncc(Br)cc23)cs1 [II-254]", "Ki": "500 to 5000 nM"}
{"Compound": "O=C(CCc1ccccc1)Nc1nc(-c2c[nH]c3ncccc23)cs1 [I-7]", "Ki": "< 500 nM"}
{"Compound": "CC(=O)N1[C@H](C)CN(c2nc(-c3c[nH]c4ncc(Cl)cc34)cs2)C[C@@H]1C [II-43]", "Ki": "500 to 5000 nM"}
{"Compound": "C[C@H](NS(C)(=O)=O)C(=O)Nc1nc(-c2c[nH]c3ncccc23)cs1 [II-222]", "Ki": "< 500 nM"}
{"Compound": "CN(C)S(=O)(=O)Nc1cccc(CC(=O)Nc2nc(-c3c[nH]c4ncccc34)cs2)c1 [II-193]", "Ki": "< 500 nM"}
{"Compound": "O=C(NCc1cccc(S(=O)(=O)N2CCOCC2)c1)c1cc(-c2c[nH]c3ncccc23)cs1 [II-80]", "Ki": "500 to 5000 nM"}
{"Compound": "COc1cccc(CC(=O)N(c2nc(-c3c[nH]c4ncccc34)cs2)C2CC2)c1 [II-70]", "Ki": "< 500 nM"}
{"Compound": "COc1cccc(CC(=O)Nc2nc(-c3c[nH]c4ncccc34)cs2)c1 [I-2]", "Ki": "< 500 nM"}
{"Compound": "CC(C(=O)Nc1nc(-c2c[nH]c3ncccc23)cs1)S(C)(=O)=O (stereo not shown) [II-226]", "Ki": "< 500 nM"}
{"Compound": "CCC(=O)Nc1nc(-c2c[nH]c3ncccc23)cs1 [II-163]", "Ki": "500 to 5000 nM"}
{"Compound": "O=C(Cc1cccnc1)Nc1nc(-c2c[nH]c3ncccc23)cs1 [II-205]", "Ki": "< 500 nM"}
{"Compound": "O=C(Cc1ccc(F)cc1)Nc1nnc(-c2c[nH]c3ncccc23)s1 [II-7]", "Ki": "< 500 nM"}
{"Compound": "CCS(=O)(=O)Nc1ccc(CC(=O)Nc2nc(-c3c[nH]c4ncccc34)cs2)c(Cl)c1 [II-35]", "Ki": "500 to 5000 nM"}
{"Compound": "NCCC(C(=O)Nc1nc(-c2c[nH]c3ncccc23)cs1)c1ccccc1Cl (stereo not shown) [II-192]", "Ki": "< 500 nM"}
{"Compound": "O=C(Cc1ccccc1F)N(c1nc(-c2c[nH]c3ncccc23)cs1)C1CC1 [II-44]", "Ki": "< 500 nM"}
{"Compound": "O=C(Cc1cccc(S(=O)(=O)NCCCN2CCOCC2)c1)Nc1nc(-c2c[nH]c3ncccc23)cs1 [II-126]", "Ki": "< 500 nM"}
{"Compound": "O=C(Cc1cccc(OCCCC2CCNCC2)c1)Nc1nc(-c2c[nH]c3nccc(F)c23)cs1 [II-17]", "Ki": "500 to 5000 nM"}
{"Compound": "COc1cccc(CC(=O)Nc2nc(-c3c[nH]c4ncc(F)cc34)cs2)c1 [II-119]", "Ki": "< 500 nM"}
{"Compound": "c1cnc2[nH]cc(-c3csc(NC4CC4)n3)c2c1 [II-3]", "Ki": "500 to 5000 nM"}
{"Compound": "O=C(Cc1ccc(F)cc1F)Nc1nnc(-c2c[nH]c3ncccc23)s1 [I-22]", "Ki": "< 500 nM"}
{"Compound": "O=C(N[C@H](CO)c1ccccc1)c1nc(-c2c[nH]c3ncccc23)cs1 [II-184]", "Ki": "< 500 nM"}
{"Compound": "CN1CCN(CCCN(C(=O)Cc2ccccc2)c2nc(-c3c[nH]c4ncccc34)cs2)CC1 [II-201]", "Ki": "< 500 nM"}
{"Compound": "CCNC(=O)Nc1nc(-c2c[nH]c3ncccc23)cs1 [II-234]", "Ki": "500 to 5000 nM"}
{"Compound": "O=C(Nc1nc(-c2c[nH]c3ncccc23)cs1)[C@H](O)c1ccccc1 [II-210]", "Ki": "< 500 nM"}
{"Compound": "O=C(NCC1CCNCC1)c1nc(-c2c[nH]c3ncc(-c4ccccc4)cc23)cs1 [II-245]", "Ki": "500 to 5000 nM"}
{"Compound": "CN(C)CCNS(=O)(=O)c1cccc(CC(=O)Nc2nc(-c3c[nH]c4ncccc34)cs2)c1 [II-97]", "Ki": "< 500 nM"}
{"Compound": "C[C@@H](NS(C)(=O)=O)C(=O)Nc1nc(-c2c[nH]c3ncccc23)cs1 [II-228]", "Ki": "< 500 nM"}
{"Compound": "CC(C)NC(=O)Nc1nc(-c2c[nH]c3ncccc23)cs1 [II-244]", "Ki": "500 to 5000 nM"}
{"Compound": "c1cnc2[nH]cc(-c3csc(NCCCN4CCOCC4)n3)c2c1 [II-197]", "Ki": "500 to 5000 nM"}
{"Compound": "O=C(CC1CCCC1)Nc1nc(-c2c[nH]c3ncc(Br)cc23)cs1 [II-248]", "Ki": "< 500 nM"}
{"Compound": "O=C(Cc1cccc(S(=O)(=O)N[C@H]2CCOC2)c1)Nc1nc(-c2c[nH]c3ncccc23)cs1 [II-42]", "Ki": "< 500 nM"}
{"Compound": "O=C(NCCc1ccccc1)c1ccc(-c2c[nH]c3ncccc23)s1 [II-31]", "Ki": "< 500 nM"}
{"Compound": "CN(C)CCN(C)S(=O)(=O)c1cccc(CC(=O)Nc2nc(-c3c[nH]c4ncccc34)cs2)c1 [II-90]", "Ki": "< 500 nM"}
{"Compound": "CS(=O)(=O)Nc1cccc(CC(=O)Nc2nc(-c3c[nH]c4ncc(Cl)cc34)cs2)c1 [II-104]", "Ki": "500 to 5000 nM"}
